assayed system: Tyrosine-protein phosphatase non-receptor type 2 (Homo sapiens)
Sequence (P17706 whole entry): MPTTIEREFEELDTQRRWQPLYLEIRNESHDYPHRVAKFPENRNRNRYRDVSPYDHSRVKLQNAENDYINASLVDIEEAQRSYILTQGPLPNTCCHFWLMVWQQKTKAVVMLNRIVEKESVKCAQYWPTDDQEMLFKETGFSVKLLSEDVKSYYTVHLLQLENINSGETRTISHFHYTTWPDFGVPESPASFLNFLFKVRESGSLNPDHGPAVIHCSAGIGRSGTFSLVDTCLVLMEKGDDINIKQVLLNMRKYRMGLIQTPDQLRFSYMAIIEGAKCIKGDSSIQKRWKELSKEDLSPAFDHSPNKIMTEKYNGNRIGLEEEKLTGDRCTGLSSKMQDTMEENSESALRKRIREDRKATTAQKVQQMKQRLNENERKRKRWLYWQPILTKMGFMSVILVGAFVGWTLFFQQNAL
procedure summary: Inhibition of TC-PTP
test readout: IC50 (µM)
Number in µM, nothing else.

QUERY: So what's the measured IC50 for this one? O=C(O)c1cc(Cc2cc(C(=O)O)c(O)c(-c3ccccc3)c2)cc(-c2ccccc2)c1O
RESULT: 291

====

The reader will find reported IC50 values listed item by item below.
assayed system: Tyrosine-protein phosphatase non-receptor type 6 (Homo sapiens)
Number in µM, nothing else.

O=C(O)c1cc(Cc2cc(C(=O)O)c(O)c(-c3ccccc3)c2)cc(-c2ccccc2)c1O | 51

Now turn to the next molecule.
QUERY: So what's the measured IC50 for this one? O=C(O)c1cc(Cc2cc(Cc3ccccc3)c(O)c(C(=O)O)c2)cc(Cc2ccccc2)c1O
RESULT: 32

====

assayed system: Tyrosine-protein phosphatase 1 (Saccharomyces cerevisiae S288c, UniProt P25044)
Sequence (P25044 whole entry): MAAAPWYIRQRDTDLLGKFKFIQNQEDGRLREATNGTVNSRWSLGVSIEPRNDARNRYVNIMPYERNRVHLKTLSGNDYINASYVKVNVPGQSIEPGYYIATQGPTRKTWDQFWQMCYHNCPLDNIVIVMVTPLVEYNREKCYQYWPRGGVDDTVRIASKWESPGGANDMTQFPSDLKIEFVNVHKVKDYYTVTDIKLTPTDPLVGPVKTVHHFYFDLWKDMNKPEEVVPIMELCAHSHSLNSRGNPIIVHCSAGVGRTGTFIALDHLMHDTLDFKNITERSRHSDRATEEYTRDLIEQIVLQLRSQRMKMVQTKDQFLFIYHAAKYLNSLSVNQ
test readout: IC50 (µM)
Number in µM, nothing else.

QUERY: Give the reported IC50 for O=C(O)c1cc(Cc2cc(C(=O)O)c(O)c(-c3ccccc3)c2)cc(-c2ccccc2)c1O (system: Tyrosine-protein phosphatase 1 (Saccharomyces cerevisiae S288c, UniProt P25044)).
RESULT: 234

====

procedure summary: Inhibition of LAR Tyrosine phosphatase D1
Set-up: species or system Homo sapiens
pIC50: −log10 of the molar value.
The reader will find reported pIC50 values listed item by item below.

O=C(O)c1cc(Cc2cc(C(=O)O)c(O)c(-c3ccccc3)c2)cc(-c2ccccc2)c1O | < 2.70

Now turn to the next molecule.
QUERY: So what's the measured pIC50 for this one? O=C(O)c1cc(Cc2cc(Cc3ccccc3)c(O)c(C(=O)O)c2)cc(Cc2ccccc2)c1O
RESULT: < 2.70

====

assayed system: UniProt P18031
Sequence (P18031 whole entry): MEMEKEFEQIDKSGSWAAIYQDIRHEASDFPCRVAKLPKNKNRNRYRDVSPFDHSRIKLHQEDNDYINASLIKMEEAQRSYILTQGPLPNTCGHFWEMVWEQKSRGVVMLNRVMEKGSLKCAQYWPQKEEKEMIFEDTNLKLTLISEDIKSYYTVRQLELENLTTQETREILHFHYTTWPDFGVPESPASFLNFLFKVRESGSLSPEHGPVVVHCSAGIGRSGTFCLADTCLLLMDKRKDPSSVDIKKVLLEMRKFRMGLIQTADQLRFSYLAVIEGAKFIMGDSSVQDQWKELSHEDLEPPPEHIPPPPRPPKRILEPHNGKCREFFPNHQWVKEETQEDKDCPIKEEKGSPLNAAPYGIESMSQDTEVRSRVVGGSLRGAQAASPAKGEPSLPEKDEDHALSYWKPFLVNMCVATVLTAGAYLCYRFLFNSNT
test readout: pKi
// pKi is dimensionless: -log10 of concentration (M)

O=C(O)c1cc(Cc2cc(Cc3ccccc3)c(O)c(C(=O)O)c2)cc(Cc2ccccc2)c1O | 5.20

Now turn to the next compound.
QUERY: So what's the measured pKi for this one? O=C(O)c1cc(Cc2cc(C(=O)O)c(O)c(-c3ccccc3)c2)cc(-c2ccccc2)c1O
RESULT: 5.03

====

assayed system: Tyrosine-protein phosphatase non-receptor type 6 (Homo sapiens, UniProt P29350)
Sequence (P29350 whole entry): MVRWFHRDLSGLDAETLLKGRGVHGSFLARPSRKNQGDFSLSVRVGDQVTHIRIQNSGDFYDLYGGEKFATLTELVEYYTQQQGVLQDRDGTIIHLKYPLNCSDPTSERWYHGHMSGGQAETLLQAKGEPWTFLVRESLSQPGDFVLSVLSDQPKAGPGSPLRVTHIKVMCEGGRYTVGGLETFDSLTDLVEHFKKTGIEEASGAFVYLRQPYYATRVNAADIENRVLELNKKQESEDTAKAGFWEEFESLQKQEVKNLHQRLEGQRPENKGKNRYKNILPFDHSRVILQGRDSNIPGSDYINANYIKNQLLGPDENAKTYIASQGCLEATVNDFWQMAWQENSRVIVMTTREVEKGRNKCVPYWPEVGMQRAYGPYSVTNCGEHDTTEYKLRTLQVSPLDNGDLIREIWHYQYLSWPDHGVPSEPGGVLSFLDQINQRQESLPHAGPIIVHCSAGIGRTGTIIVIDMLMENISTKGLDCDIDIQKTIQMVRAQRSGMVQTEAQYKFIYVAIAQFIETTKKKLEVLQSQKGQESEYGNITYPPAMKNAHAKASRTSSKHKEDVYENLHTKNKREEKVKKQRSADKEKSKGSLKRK
test readout: Ki (µM)
Number in µM, nothing else.

QUERY: Give the reported Ki for O=C(O)c1cc(Cc2cc(C(=O)O)c(O)c(-c3ccccc3)c2)cc(-c2ccccc2)c1O (system: Tyrosine-protein phosphatase non-receptor type 6 (Homo sapiens, UniProt P29350)).
RESULT: 17
